Assay: Spontaneous Raman / hyperspectral SRS spectroscopy of probes and uncaged alkynes
Format: physicochemical
Settings: cell silent region; model systems
MEASUREMENT_NAME: Raman Peak (cm⁻¹)
Give bare numbers, in cm⁻¹.

Batch of 4 compounds: report Raman Peak for each.
1. O=c1c(C#Cc2ccccc2)c1-c1ccccc1 [2-cyclo (3)]
2. O=c1c(C#Cc2ccccc2)c(C#Cc2ccccc2)c1=O [3-cyclo (5)]
3. C(#Cc1ccccc1)c1ccccc1 [1-yne (2), diphenylacetylene]
4. O=c1c(-c2ccccc2)c1-c1ccccc1 [1-cyclo (1), diphenylcyclopropenone]

[2218, 2194, 2226, 1860]

###

Test: UV-Vis absorption spectra
Type: physicochemical
Settings: 20 uM in DMSO
Give measured Abs for each item. Keep answers brief.

Observe how each entry below is paired with its result.
O=c1c(-c2ccccc2)c1-c1ccccc1	302 nm
C(#Cc1ccccc1)c1ccccc1	283 nm

Fill in Abs for each of the 2 molecules listed.
1. O=c1c(C#Cc2ccccc2)c(C#Cc2ccccc2)c1=O
2. O=c1c(C#Cc2ccccc2)c1-c1ccccc1

371 nm
324 nm
